compounds and their reported inhibition
Target: Tyrosine-protein kinase ZAP-70 (Homo sapiens)
Conditions: at 1 µM
Description: GSK_PKIS: ZAP70 mean inhibition at 1 uM [Nanosyn]

substance-smiles: COc1cc2ncn(-c3cc(OCc4ccccc4S(C)(=O)=O)c(C#N)s3)c2cc1OC
inhibition (%): 4
//
substance-smiles: CCn1c(-c2nonc2N)nc2c(C#CC(C)(C)O)nc(OCCNC)cc21
inhibition (%): 1.49
//
substance-smiles: CS(=O)(=O)CCNCc1nc(-c2ccc3ncnc(Nc4ccc(OCc5cccc(C(F)(F)F)c5)cc4)c3c2)cs1
inhibition (%): 0.78
//
substance-smiles: Nc1nccc(-c2c(-c3ccc(F)cc3)ncn2CCCN2CCOCC2)n1
inhibition (%): 1.23
//
substance-smiles: CN(C)C(=O)O[C@H]1CN[C@H](C#Cc2cc3ncnc(Nc4ccc(OCc5cccc(F)c5)c(Cl)c4)c3s2)C1
inhibition (%): 3.33
//
substance-smiles: COc1cc(/C=N/Nc2ncnc3c2cnn3C(C)C)ccc1O
inhibition (%): 4.45
//
substance-smiles: Cc1ccc2c(c1)/C(=N/Nc1ccc(S(N)(=O)=O)cc1)C(=O)N2
inhibition (%): 1.47
//
substance-smiles: COC(=O)c1cncc(/C=C/c2c(C)cc(O)cc2C)c1
inhibition (%): -0.01
//
substance-smiles: NS(=O)(=O)c1ccc(NC=C2C(=O)Nc3ccc4ncsc4c32)cc1
inhibition (%): 11.9
//
substance-smiles: Cc1cc(-c2ccccn2)cc(C)c1/C=C/c1cncc(-c2nn[nH]n2)c1
inhibition (%): -2.29
//
substance-smiles: Oc1cccc(-c2nc(-c3ccccc3)[nH]c2-c2ccncc2)c1
inhibition (%): 3.35
//
substance-smiles: Cc1ccc(O)cc1Nc1ccnc2ccc(S(C)(=O)=O)cc12
inhibition (%): 1.31
//
substance-smiles: CCS(=O)(=O)c1ccc(OC)c(Nc2nccc(N(C)c3ccc4c(C)n[nH]c4c3)n2)c1
inhibition (%): 2.48
//
substance-smiles: COC(=O)Nc1nc2cc(Oc3ccc(NC(=O)Nc4cccc(Br)c4)cc3)ccc2[nH]1
inhibition (%): 3.22
//
substance-smiles: c1ccc(Nc2ncc(-c3ccccc3)o2)cc1
inhibition (%): 1.41
//
substance-smiles: OCc1ccc(-c2nc(-c3ccccn3)c(-c3ccc4c(c3)OCO4)[nH]2)cc1
inhibition (%): 0.81
//
substance-smiles: CCOc1nccc2c1nc(-c1nonc1N)n2CC
inhibition (%): 1.9
//
substance-smiles: CCn1c(-c2nonc2N)nc2ccc(F)cc21
inhibition (%): 2.76
//
substance-smiles: NC(=O)c1sc(-n2cnc3ccccc32)cc1OCc1ccccc1Br
inhibition (%): -2.62
//
substance-smiles: Cc1nc(-c2ccccc2)n2nc(NCCCN3CCOCC3)ncc12
inhibition (%): 0.63
//
substance-smiles: COc1ccc2ncnc(Nc3ccc(OCc4ccccc4)cc3)c2c1
inhibition (%): 1.84
//
substance-smiles: Nc1ccc(C#Cc2cncnc2Nc2ccc(OCc3cccc(F)c3)c(Cl)c2)cc1
inhibition (%): -1.74
//
substance-smiles: Cc1ccc(C(=O)NC2CC2)cc1-c1ccc2[nH]ncc2c1
inhibition (%): -1.58
//
substance-smiles: O=C(Nc1ccc(Oc2ccc3[nH]c(NC(=O)c4ccco4)nc3c2)cc1)Nc1cc(C(F)(F)F)ccc1F
inhibition (%): -9.02
